Assay: soluble on expression in E. coli; label from the status in PepcDB or PDB records
Endpoint: soluble on expression in E. coli

Some solved cases for reference:
>  <Chain sequence>
MGHHHHHHAIAENLYFQSKLVEKTTTTEQDNGEDFCRTIIEVSEVNRNVFQAPGGEADPFRVVSGEELHLIPPLNFSMVDNGIFRSGFPDSANFSFLQTLGLRSIIYLCPEPYPESNLQFLKSNGIRLFQFGIEGNKEPFVNIPDHKIRMALKVLLDEKNHPVLIHCKRGKHRTGCLVGCLRKLQKWCLTSIFDEYQRFAAAKARVSDQRFMEIFDVSSFSHIPMSFSCSIR

>  <soluble on expression in E. coli>
soluble

$$$$
>  <Chain sequence>
MAVHTDPFKKYLYKIGNRTSGSDKHIRKFKTFLTISAYSNILVISMIIDQLRIQKNIPDEEFDAIYPFEIRELSERHWTSVFVAKTAADFLCNQRPVKVLDIGSGAGKFCFVGAALHPSSQFHGIDIRENFIQLSNNLKEQYAVANVSFFQQDALEMDLTGYGGIYFFNSFQEKIDPTSVIDHNSKVSVEQYIQYTNHIFNELNKVPAGTKLVTYYSEDFCVPGSFRLLATHFNGELKFYLKEMEPDESDEQLNQQDISEHIDRHTFLSE

>  <soluble on expression in E. coli>
not soluble

$$$$
>  <Chain sequence>
MGSDKIHHHHHHMGHSLNAKYGLKRVINASGRMSILGVSAPTDTVMDAMKHGGQNYVEIADLVDKAGDHIARILDSEAAVVVNSASSGIALSIAAIVTEGNRRKSERLHQEVIAKNEVIMLKGHNVQYGAPVETMIYLGGGKLVEVGYANEGKAEHIEDAIGENTAAILYVKSHHAVQKNMISVEEAWEVAQRNNIPLIVDAAAEEDIQKYVKYADLAIYSGSKAIEGPTSGIVGGKRKYIEWLKVQLHCIGRSMKVGKETTFGLLQALDEYGVKEDKSEQEKELLQVLMPLKELNGVNVTIVQDEAGRAIFRARIHIDENELNKSAKDVVTALREGEIAIYTRDYGVRQGFFDIDPRPLLGDDIHVIEEKLREIVGGN

>  <soluble on expression in E. coli>
not soluble

$$$$
>  <Chain sequence>
QYRHMIGQDAGYKAAGLYYVPIESLDQQQLPVVIEKLKALPEVEGYTLTTALPASSGQSGDNLIDPVTDRELINVADLFYVDEHYLKVYDIELLEGKNFDAATEKDREIMLSKKAATELARLMNWKDGVIGKNIILTSFGRVVIRGVYDDLMLRRQHLSPYPEKLPSAIVYGDDWLHYLTIRLRHDDARLLHRVNGILSEADPYKETSFLGVEMELLSRFEAAKTFRNT

>  <soluble on expression in E. coli>
not soluble

$$$$
>  <Chain sequence>
MLQNQYVREMRKYGVRGLRYDAAKHSKHEQIERSITPPLKNYNERLHNTNLFNPKYHEKAVMNYMEYLVTCQLDEEQMSSLLYERDDLSAIDFSLLMKTIKAFSFGGDLQTLASKPSSTISSIPSKRRILININHDFPNNGNLFNDFLFNHQQDEQLAMAYMAALPFSRPLVYWDGQVLKSTTEIKNYDGSTRVGGEAWLNKGCSTYQQLYNEFHALYIDKAGIWSAFEGVFATKNVLAFSRGDSVNINHSPHDGLVIINKGNEEVEGAWPNKLQPGKYKNMGSNSVNIIINNTRKIIPPGKAFMLRGGTLNINIPGRSALLLGKTGEPLNYLYL

>  <soluble on expression in E. coli>
not soluble

$$$$
>  <Chain sequence>
MGSDKIHHHHHHMSSKAEKDIKWGIAPIGWRNDDIPSIGKDNNLQQLLSDIVVAGFQGTEVGGFFPGPEKLNYELKLRNLEIAGQWFSSYIIRDGIEKASEAFEKHCQYLKAINAPVAVVSEQTYTIQRSDTANIFKDKPYFTDKEWDEVCKGLNHYGEIAAKYGLKVAYHHHMGTGIQTKEETDRLMANTDPKLVGLLYDTGHIAVSDGDYMALLNAHIDRVVHVHFKDVRRSKEEECRAKGLTFQGSFLNGMFTVPGDGDLDFKPVYDKLIANNYKGWIVVEAEQDPSKANPLEMAQIAHRYIKQHLIEN

>  <soluble on expression in E. coli>
not soluble

$$$$

Now examine the next entry.
Query block: # soluble on expression in E. coli lookup, item MGSDKIHHHHHHMTKVRVAGFGVSLDGFAAGTAQSLDHPLGVRGEEIFQWFFPTRTFRQMLGKEGGDTGLDDRFAQRAMEGFGAFILGRNMFGPVRGEWPDDQWKGWWGDNPPYHAPTFILTHHARPSIEMLGGTTFHFVTGGIEDALEKARKAAGGKDVKIGGGVKTVKQYVQAGYVDEIHLAFAPVALGQGESLFGGLDLRTLGYQTVEHVPTDRATHIVLAK
Result block: not soluble

These data points were gathered from the DeepSol protein solubility set.
